Target: T1, human VEGF (human, UniProt P15692 207-395, biotinylated (site not stated))
T1 construct: Biotinylated human VEGF generated internally; also called hVEGF; hVEGF-biotin
T1 sequence: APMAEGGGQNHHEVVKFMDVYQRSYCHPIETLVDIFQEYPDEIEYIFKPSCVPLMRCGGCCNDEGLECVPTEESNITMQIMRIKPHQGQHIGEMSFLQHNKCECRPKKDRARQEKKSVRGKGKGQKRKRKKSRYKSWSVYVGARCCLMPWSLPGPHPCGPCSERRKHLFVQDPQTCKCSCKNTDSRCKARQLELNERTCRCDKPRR
Assay: Biacore SPR, hVEGF
koff overview
measureName: koff

* NVS4 heavy chain variant D55N + D56N (Fab, V domains shown, CDR variant of NVS4) VH: EVQLVESGGGLVQPGGSLRLSCTASGFSLTDYYYMTWVRQAPGKGLEWVGFIDPNNDPYYATWAKGRFTISRDNSKNTLYLQMNSLRAEDTAVYYCAGGDHNSGWGLDIWGQGTLVTVSS VL: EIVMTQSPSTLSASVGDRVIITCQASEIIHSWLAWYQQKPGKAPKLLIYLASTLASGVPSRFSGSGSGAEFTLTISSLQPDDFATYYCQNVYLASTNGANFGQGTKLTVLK | 0.000951 s⁻¹
* NVS4 heavy chain variant Y59H (Fab, V domains shown, CDR variant of NVS4) VH: EVQLVESGGGLVQPGGSLRLSCTASGFSLTDYYYMTWVRQAPGKGLEWVGFIDPDDDPHYATWAKGRFTISRDNSKNTLYLQMNSLRAEDTAVYYCAGGDHNSGWGLDIWGQGTLVTVSS VL: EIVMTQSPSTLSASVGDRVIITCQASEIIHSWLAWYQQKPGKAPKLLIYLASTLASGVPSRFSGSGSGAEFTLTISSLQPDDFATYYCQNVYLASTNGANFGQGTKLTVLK | 0.000119 s⁻¹
* LC6T (Fab, V domains shown, Light chain CDR variant LC6 with tagged NVS4 heavy chain) VH: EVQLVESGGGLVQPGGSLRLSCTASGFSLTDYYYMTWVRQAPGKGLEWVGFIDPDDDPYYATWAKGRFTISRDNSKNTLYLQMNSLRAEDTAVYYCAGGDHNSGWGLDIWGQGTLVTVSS VL: EIVMTQSPSTLSASVGDRVIITCQASQIIHSWLAWYQQKPGKAPKLLIYQASTLAKGVPSRFSGSGSGAEFTLTISSLQPDDFATYYCQNVYLASRNGANFGQGTKLTVLK | 9.66e-05 s⁻¹
* NVS4 light chain variant I28K (Fab, V domains shown, CDR variant of NVS4) VH: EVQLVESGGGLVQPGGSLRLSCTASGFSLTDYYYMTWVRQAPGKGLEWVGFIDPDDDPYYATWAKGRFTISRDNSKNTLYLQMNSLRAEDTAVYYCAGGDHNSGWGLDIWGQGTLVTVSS VL: EIVMTQSPSTLSASVGDRVIITCQASEKIHSWLAWYQQKPGKAPKLLIYLASTLASGVPSRFSGSGSGAEFTLTISSLQPDDFATYYCQNVYLASTNGANFGQGTKLTVLK | 3e-05 s⁻¹
* NVS4 heavy chain variant D31S + Y32K (Fab, V domains shown, CDR variant of NVS4) VH: EVQLVESGGGLVQPGGSLRLSCTASGFSLTSKYYMTWVRQAPGKGLEWVGFIDPDDDPYYATWAKGRFTISRDNSKNTLYLQMNSLRAEDTAVYYCAGGDHNSGWGLDIWGQGTLVTVSS VL: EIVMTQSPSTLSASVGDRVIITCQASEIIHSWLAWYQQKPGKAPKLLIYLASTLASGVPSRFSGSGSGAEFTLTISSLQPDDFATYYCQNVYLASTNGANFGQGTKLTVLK | 0.000958 s⁻¹
